Assay: Inhibition of wild type human plasma alpha-thrombin assessed as spectrozyme TH hydrolysis after 10 mins by spectrophotometric analysis in absence of exosite 2 ligand UFH
REPORTED_ENDPOINT: IC50 (µM)
Quick reminder: number only, in µM, skip the unit.

The recorded IC50 for CCOC(=O)c1c(C)oc2cc(OC)c(OCc3oc4cc(OC)c(OS(=O)(=O)[O-])cc4c3C(=O)OCC)cc12.[Na+] is 8.8

---

Biological target: Coagulation factor X (Homo sapiens, UniProt P00742)
Sequence (P00742 41-179 limits assumed): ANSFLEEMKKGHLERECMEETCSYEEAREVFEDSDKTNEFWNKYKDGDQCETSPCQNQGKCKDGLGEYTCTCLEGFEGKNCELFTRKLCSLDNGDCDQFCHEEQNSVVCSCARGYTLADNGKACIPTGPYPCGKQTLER
Sequence (P00742 235-488 limits assumed): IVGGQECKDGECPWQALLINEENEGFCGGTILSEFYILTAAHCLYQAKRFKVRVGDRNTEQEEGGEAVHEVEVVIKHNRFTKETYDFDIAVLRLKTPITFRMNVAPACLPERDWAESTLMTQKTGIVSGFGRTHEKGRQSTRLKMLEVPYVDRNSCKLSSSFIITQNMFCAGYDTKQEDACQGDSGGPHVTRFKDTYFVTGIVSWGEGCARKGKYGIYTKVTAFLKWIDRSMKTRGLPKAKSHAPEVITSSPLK
Experiment: Inhibition of human plasma F10a assessed as spectrozyme TH hydrolysis after 10 mins
REPORTED_ENDPOINT: IC50

Hey, Coagulation factor X (Homo sapiens, UniProt P00742) data for CCOC(=O)c1c(C)oc2cc(OC)c(OCc3oc4cc(OC)c(OS(=O)(=O)[O-])cc4c3C(=O)OCC)cc12.[Na+] : IC50 came out at > 300 µM
